Experiment: chemical genetic growth profiling, strain panel (AID 1159580);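 further: tested at 20 µM; growth read once vehicle control cultures reached saturation at 30 °C; 1 = growth at the plate median or of vehicle wells; lower values mean less growth of the strain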
Details: S. cerevisiae deletion strains, growth OD, locus YBR229C, strain ROT2, stronger effect = lower value
Hit rate of the full screen: of about 5,500 compounds, about 2,000 (36%) were called active. Roughly 18% stayed inconclusive and do not appear here. The list shows a part of the results.
Catalogue of normalized growth values
assay_readout: normalized growth

{"molecule": "Cc1ccc(C)n1-c1ccc(C(=O)NNC(=O)c2ccc3nccnc3c2)cc1", "assay_readout": "normalized growth", "meas_value": 1}
{"molecule": "CSc1nc(N)n(-c2ccccc2)n1", "assay_readout": "normalized growth", "meas_value": 1.02}
{"molecule": "COC(=O)[C@@H]1OC(=O)C2OC23[C@@]1(C)CCC1[C@]2(C)C(C[C@H](O)[C@]13C)C(C)(C)[C@H](OC(C)=O)C[C@@H]2OC(C)=O (stereo not given in full)", "assay_readout": "normalized growth", "meas_value": 1.01}
{"molecule": "O=[N+]([O-])c1ccc(S(=O)(=O)N2CCCCC2)cc1", "assay_readout": "normalized growth", "meas_value": 0.985}
{"molecule": "CCN(CC)C(=O)N1CCN(C)CC1", "assay_readout": "normalized growth", "meas_value": 1.01}
{"molecule": "CCCCCCC(C)OC(=O)COc1cc(Cl)c(Cl)cc1Cl (stereo not given)", "assay_readout": "normalized growth", "meas_value": 1}
{"molecule": "COc1ccc(/C=C2\\CC/C(=C\\c3ccc(OC)c(OC)c3)C2=O)cc1OC", "assay_readout": "normalized growth", "meas_value": 0.998}
{"molecule": "OCC(O)CN1CCN(c2ccccc2)CC1 (stereo not given)", "assay_readout": "normalized growth", "meas_value": 0.984}
{"molecule": "CCOC(=O)Cc1csc(N=CNO)n1", "assay_readout": "normalized growth", "meas_value": 1.02}
{"molecule": "OC1(c2ccc(F)cc2)Cc2ccccc2C2=NCCN21 (stereo not given)", "assay_readout": "normalized growth", "meas_value": 0.987}
{"molecule": "C=C1C2CC[C@@]3(C)[C@H](c4ccoc4)OC(=O)C[C@]13O[C@H]1CC(=O)C(C)(C)[C@H](C(OC(C)=O)C(=O)OC)[C@@]21C (stereo not given in full)", "assay_readout": "normalized growth", "meas_value": 0.994}
{"molecule": "O=[N+]([O-])c1ccc(OCCO)c([N+](=O)[O-])c1", "assay_readout": "normalized growth", "meas_value": 0.978}
{"molecule": "C=CCc1ccc(O)c(OC)c1", "assay_readout": "normalized growth", "meas_value": 0.94}
{"molecule": "NCCCS(=O)(=O)O", "assay_readout": "normalized growth", "meas_value": 0.955}
{"molecule": "COc1cc2c(cc1OC)C(=O)c1ccc(OC)c(OC)c1OCC(=O)C2", "assay_readout": "normalized growth", "meas_value": 1.01}
{"molecule": "C=C1CCC2[C@](C)(CO)[C@H](O)CC[C@@]2(C)[C@@H]1C/C=C1/C(=O)OC[C@H]1O (stereo not given in full)", "assay_readout": "normalized growth", "meas_value": 1.01}
{"molecule": "Cc1onc(-c2c(Cl)cccc2Cl)c1-c1nc(-c2ccc3c(c2)OCCO3)cs1", "assay_readout": "normalized growth", "meas_value": 1.01}
{"molecule": "C/C=C(\\C)C(=O)O[C@H]1C[C@@H](OC(C)=O)[C@@]2(C(=O)OC)CO[C@@H]3C2[C@]12CO[C@](O)(C(=O)OC)[C@H]2[C@](C)(C12O[C@@]1(C)[C@H]1C[C@@H]2OC2OC=C[C@@]21O)[C@@H]3O (stereo not given in full)", "assay_readout": "normalized growth", "meas_value": 0.99}
{"molecule": "O=C1NCC2(CCN(CCc3ccccc3)CC2)O1", "assay_readout": "normalized growth", "meas_value": 1.01}
{"molecule": "CNC(=O)O/N=C(\\C)SC", "assay_readout": "normalized growth", "meas_value": 1.01}
{"molecule": "CC(C)NCC(O)COc1cccc2[nH]ccc12 (stereo not given)", "assay_readout": "normalized growth", "meas_value": 0.999}
{"molecule": "O=C1CCC(N2C(=O)c3ccccc3C2=O)C(=O)N1 (stereo not given)", "assay_readout": "normalized growth", "meas_value": 1.01}
{"molecule": "COC(=O)CCCCCCCC(=O)Nc1ccc(Cl)cc1", "assay_readout": "normalized growth", "meas_value": 0.997}
{"molecule": "Cc1ccc(-c2csc(CC#N)n2)cc1C", "assay_readout": "normalized growth", "meas_value": 0.961}
{"molecule": "CC(=O)O[C@H]1C[C@@H](OC(C)=O)C(C)(C)C2CC(=O)[C@]3(C)C(CC[C@@]4(C)[C@H](C(=O)O)OC(=O)C5OC543)[C@]21C (stereo not given in full)", "assay_readout": "normalized growth", "meas_value": 0.964}
